System: INS-1E rat beta cells, no cytokines, CellTiter-Glo ATP, 48 h
Test: cytokine-free beta-cell viability effect – INS-1E rat cells, ATP luminescence, cherry pick, counter-screen for beta-cell apoptosis protection project, dose response (AID 463229)
outcome-measure: AC50

Task: Please provide the recorded AC50 for O=C(N/N=C/c1cccnc1)c1ccc(NC(=O)C(c2ccccc2)c2ccccc2)cc1 , tested on INS-1E rat beta cells, no cytokines, CellTiter-Glo ATP, 48 h.
Result: 848 nM

Task: Please provide the recorded AC50 for CCC(=O)NC(c1ccc(C)cc1)c1cc([N+](=O)[O-])c2cccnc2c1O (configuration not stated) , tested on INS-1E rat beta cells, no cytokines, CellTiter-Glo ATP, 48 h.
Result: 13800 nM

Task: Please provide the recorded AC50 for CCc1nc(N2CCN(C(C)=O)CC2)c2c3c(sc2n1)CC(C(C)(C)C)CC3 (configuration not stated) , tested on INS-1E rat beta cells, no cytokines, CellTiter-Glo ATP, 48 h.
Result: 2790 nM

Task: Please provide the recorded AC50 for CCC(Sc1nc(C)cc(C)n1)C(=O)NC1=NN=C(c2ccc(C)cc2)CS1 (configuration not stated) , tested on INS-1E rat beta cells, no cytokines, CellTiter-Glo ATP, 48 h.
Result: 2140 nM

Task: Please provide the recorded AC50 for Cc1ccc2nc(-c3ccc(-c4cccc(Cl)c4)cc3)c(NCc3ccccc3)n2c1 , tested on INS-1E rat beta cells, no cytokines, CellTiter-Glo ATP, 48 h.
Result: 2480 nM

Task: Please provide the recorded AC50 for c1ccc(CCNc2nc(-c3ccccn3)nc3ccccc23)cc1 , tested on INS-1E rat beta cells, no cytokines, CellTiter-Glo ATP, 48 h.
Result: 4920 nM

Task: Please provide the recorded AC50 for CCOc1ccc(Nc2c3ccccc3nc3ccccc23)cc1 , tested on INS-1E rat beta cells, no cytokines, CellTiter-Glo ATP, 48 h.
Result: 7360 nM
